Source listed as paper PMC5540273.

Test system: DYRK1A
study.conditions: concentration: 1 μM, replicates: in singlicate; n = 1;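 note: KINOMEscan kinase panel screen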
// reported %Inh per item
Just the number please, in %, no unit attached.

COc1cccc(-c2ccc3c(NC(=O)C4CC4)n[nH]c3n2)c1: 52
Cl.Cl.NCC(NC(=O)c1cc(-c2ccccc2)c(-c2ccnc3[nH]ccc23)s1)c1ccccc1 (stereo not drawn): 13

Fill in: DYRK1A %Inh for Cl.c1ccc(-c2ccc3c(Nc4ccc5[nH]ncc5c4)ccnc3c2)nc1 = 21

###

Tested on: PKMYT1
study.conditions: concentration: 1 μM, replicates: in singlicate; n = 1
// reported %Inh per item
Returns: string containing the numeric result and its unit.

A selection of reference data follows.
COc1cc(Nc2nccc(-c3c(-c4cccc(NC(=O)c5c(F)cccc5F)c4)nn4ccccc34)n2)cc(OC)c1OC: 4%
C[C@@H](Oc1cc(-n2cnc3cc(-c4ccnc(NCCS(C)(=O)=O)c4)ccc32)sc1C(N)=O)c1ccccc1Cl: 5%
Fc1ccc(-c2ncn(C3CCNCC3)c2-c2ccnc(Oc3ccc(-c4ccccc4)cc3)n2)cc1: 9%

# next molecule below
Entry CN1CCN(CCCNc2nccc(-c3c(-c4ccc(F)cc4)nn4cc(C(F)(F)F)ccc34)n2)CC1 — recorded %Inh = 0%

###

Tested on: CDK3
study.conditions: concentration: 1 μM, replicates: in singlicate; n = 1
// reported %Inh per item
Just the number please, in %, no unit attached.

A selection of reference data follows.
Cl.NC(=O)c1cccc(Nc2nccc(Nc3ccc(Oc4c(Cl)cccc4Cl)c(Cl)c3)n2)c1: 0
COc1cc(Nc2nccc(N3CCC(NC(=O)Nc4cccc(C(C)=O)c4)C3)n2)cc(OC)c1OC (centres unmarked): 11
Nc1ncc(-c2ccc3nccc(-c4ccncc4)c3c2)cc1S(=O)(=O)N1CCOCC1: 6
CN(C)S(=O)(=O)c1cc(-c2ccc3nccc(-c4cccc(S(N)(=O)=O)c4)c3c2)cnc1N: 9
Cc1occc1-c1ncc(OC[C@@H](N)Cc2c[nH]c3ccccc23)cc1-c1ccc2[nH]nc(C)c2c1.O=C(O)C(F)(F)F: 2
Cl.Cl.NCC(NCc1ccc(-c2ccnc3[nH]ccc23)s1)c1ccccc1 (centres unmarked): 0

Entry CN(c1ccc(NC(=O)Nc2cc(C(F)(F)F)ccc2F)cc1)c1ccnc(Nc2ccc(S(N)(=O)=O)cc2)n1 — recorded %Inh = 99

Entry COc1ccc(Nc2nccc(N3CCC(NC(=O)Nc4cccc(OC)c4)C3)n2)cc1 (centres unmarked) — recorded %Inh = 27

Entry O=C(Nc1cccc(-c2nn3ccccc3c2-c2ccnc(Nc3cccc(F)c3)n2)c1)c1c(F)ccc(F)c1Cl — recorded %Inh = 1

Entry COc1ccc(-c2coc3ccc(-c4nnc(SCc5ccc(OC)c(C(F)(F)F)c5)o4)cc23)cc1 — recorded %Inh = 0

Entry COCCOCCOc1cc2ncc3c4ccc(C#N)cc4[nH]c3c2cc1OC — recorded %Inh = 15

###

Test system: FAK
Construct: gene PTK2
study.conditions: concentration: 1 μM, replicates: in singlicate; n = 1
experimental.endpoint: %Inh (%)
Just the number please, in %, no unit attached.

A selection of reference data follows.
COc1ccc(CNC(=O)NC2CCN(c3ccnc(Nc4ccc(F)cc4)n3)CC2)cc1 [GSK1379788]: 0
COc1ccc(Nc2nccc(N3CCC(NC(=O)Nc4cccc(OC)c4)C3)n2)cc1 (stereo not shown) [GSK1379742]: 0
Fc1ccc(-c2ncn(C3CCNCC3)c2-c2ccnc(Oc3ccc(-c4ccccc4)cc3)n2)cc1 [SB-245391]: 12

Entry C[C@@H](Oc1cc(-n2cnc3cc(-c4ccnc(NCCS(C)(=O)=O)c4)ccc32)sc1C(N)=O)c1ccccc1Cl [GSK907232] — recorded %Inh = 0

Entry Cn1cc(-c2ccc3c(c2)CCN3C(=O)Cc2cccc(Cl)c2)c2c(N)ncnc21 [GSK2606590] — recorded %Inh = 0

Entry c1ccc(Oc2ccc(Nc3ccnc4cc(-c5ccc(CNCCN6CCOCC6)o5)ccc34)cc2)nc1 [GW567145] — recorded %Inh = 0

Entry CCn1c(-c2nonc2N)nc2c(C#CC(C)(C)O)ncc(OCCCCN)c21.O=C(O)C(F)(F)F.O=C(O)C(F)(F)F [GSK507274] — recorded %Inh = 0

Entry CCS(=O)(=O)c1ccc(OC)c(Nc2nccc(-c3c(-c4cccc(NC(=O)c5c(F)cccc5F)c4)nn4ncccc34)n2)c1 [GSK326180] — recorded %Inh = 0

Entry COc1cc(Nc2nccc(N3CCC(NC(=O)Nc4cccc(C(C)=O)c4)C3)n2)cc(OC)c1OC (stereo not shown) [GSK1379753] — recorded %Inh = 0

Entry Cl.Cl.NCC(C(=O)Nc1cc(Br)c(-c2ccnc3[nH]ccc23)s1)c1ccccc1 (stereo not shown) [GSK1269851] — recorded %Inh = 0

Entry COCCOCCOc1cc2ncc3c4ccc(C#N)cc4[nH]c3c2cc1OC — recorded %Inh = 16

Entry Cn1cc(-c2ccc3c(c2)CCN3C(=O)Cc2cccc(F)c2)c2c(N)ncnc21 [GSK2603358] — recorded %Inh = 0

Entry COc1ccc(-c2coc3ccc(-c4nnc(SCc5ccc(OC)c(C(F)(F)F)c5)o4)cc23)cc1 — recorded %Inh = 10

Entry Cc1cccc(Nc2nc(N[C@H]3CCNC3)ncc2C(N)=O)c1.Cl [GSK2197149] — recorded %Inh = 0

Entry FC(F)(F)c1ccc(/C=C/c2cncnc2Nc2ccc3[nH]c(Cc4ccccc4)nc3c2)cc1 [GW709199] — recorded %Inh = 21

Entry COc1cc(Nc2nccc(N3CCC(NC(=O)c4cc5ccccc5s4)C3)n2)cc(OC)c1OC (stereo not shown) [GSK1379760] — recorded %Inh = 0
